system: mice; assay: Assessment of behaviour and mortality in mice (Irwin's method); format: in vivo; details: dose 300 (mg/kg per os), dead/treated, 4 animals/dose
recorded.endpoint: Death rate

Worked set:
>>> reported_result("CCCCCCCOC(=O)C[C@H](C[N+](C)(C)C)OC(=O)C(C)C")
"2/4"
>>> reported_result("CCCCCCCOC(=O)C[C@H](C[N+](C)(C)C)OC(=O)CC(C)C")
"1/4"
>>> reported_result("CCCCCCCOC(=O)C[C@H](C[N+](C)(C)C)OC(C)=O [ST 904, acetyl L-carnitine heptyl ester chloride]")
"0/4"

We now examine a further molecule.
Which value of Death rate has been reported for CCCCOC(=O)C[C@H](C[N+](C)(C)C)OC(=O)CC(C)C in the records?
0/4

====

molecular target: sites associated to calcium channels labeled by ^3H-Nitrendipine; assay: Binding to Ca++ channel sites labelled by 3H-Nitrendipine in rat brain; settings: rat brain cortex membranes; ^3H-Nitrendipine 0.5 nM, 60' at 30°C; inactive at 10^-5 M not tested higher; read-out: IC50 Uptake sites of Ca^++ channels labelled with ^3H-Nitrendipine
pIC50: −log10 of the molar value.
recorded.endpoint: pIC50

Worked set:
>>> reported_result("CCCCCCCOC(=O)C[C@H](C[N+](C)(C)C)OC(C)=O [ST 904, acetyl L-carnitine heptyl ester chloride]")
"< 5.00"
>>> reported_result("CCCCOC(=O)C[C@H](C[N+](C)(C)C)OC(=O)CC(C)C [ST 683]")
"< 5.00"

Hello, I would appreciate it if you could give pIC50 for each entry below.
1. CCCCCCCOC(=O)C[C@H](C[N+](C)(C)C)OC(=O)CC(C)C [ST 697]
2. CCCCCCCCCCCOC(=O)C[C@H](C[N+](C)(C)C)OC(=O)CC(C)C [ST 722]
3. CCCCCCCCCCCOC(=O)C[C@H](C[N+](C)(C)C)OC(=O)C(C)C [ST 712]
4. CC(C)COC(=O)C[C@H](C[N+](C)(C)C)OC(=O)C(C)C [ST 305]

< 5.00
5.80
5.28
4.48

Consider the following items and state reported pIC50 for each.
1. CC(C)COC(=O)C[C@H](C[N+](C)(C)C)OC(=O)CC(C)C [ST 684]
2. CCCCCCCOC(=O)C[C@H](C[N+](C)(C)C)OC(=O)C(C)C [ST 713]

< 5.00
< 5.00

====

molecular target: sites associated to calcium channels labeled by ^3H-Verapamil; assay: Binding to Ca++ channel sites labelled by 3H-Verapamil in rat brain; conditions: rat brain cortex membranes; ^3H-Verapamil (10 µM), 20' at 37°C; read-out: IC50 Uptake sites of Ca^++ channels labelled with ^3H-Verapamil
I'd be grateful if you could share measured pIC50 for these entries.
One number for each entry, as −log10 of the molar value.

>>> reported_result("CCCCCCCCCCCOC(=O)C[C@H](C[N+](C)(C)C)OC(=O)CC(C)C")
6.42
>>> reported_result("CC(C)COC(=O)C[C@H](C[N+](C)(C)C)OC(=O)C(C)C")
5.46
>>> reported_result("CCCCOC(=O)C[C@H](C[N+](C)(C)C)OC(=O)CC(C)C")
5.62

Hi! Can you tell me pIC50 for each of these molecules?
1. CCCCCCCCCCCOC(=O)C[C@H](C[N+](C)(C)C)OC(=O)C(C)C
2. CC(C)COC(=O)C[C@H](C[N+](C)(C)C)OC(=O)CC(C)C
3. CCCCCCCOC(=O)C[C@H](C[N+](C)(C)C)OC(C)=O [ST 904, acetyl L-carnitine heptyl ester chloride]
4. CCCCCCCOC(=O)C[C@H](C[N+](C)(C)C)OC(=O)CC(C)C
5. CCCCCCCOC(=O)C[C@H](C[N+](C)(C)C)OC(=O)C(C)C

1. 5.55
2. 5.80
3. 5.49
4. 5.82
5. 5.92

Values from patent EP0559625B1
